Catalogue of compounds with associated growth inhibition
- test: NCI Yeast Anticancer Drug Screen. Data for the bub3 strain (AID 167)
- cond: S. cerevisiae bub3 mutant strain, at 50.0 µM, active compounds read high
- Procedure: Growth inhibition of yeast strains with defined genetic alterations is measured as a screen for potential anti-cancer activity. Selected strains with alterations in DNA damage repair or cell cycle control were exposed to compounds and growth inhibition was measured relative to vehicle treated controls. The strain used in this assay is bub3
The panel holds about 79,000 compounds, 15% with a hit somewhere; the sample as a whole holds those more often. Where a SMILES comes first, the peptide text is derived from it. The star is where a group is joined. Boc = CC(C)(C)OC(=O)*; OBn = c1ccc(CO*)cc1
Field format: number, assumed %, no unit text.

Sample answers from the record:
Task item: What value of growth inhibition has been recorded for this entry: Cc1ccc(S(=O)(=O)OC2C(OC(=O)c3ccccc3)OCC(O)C2O)cc1 (stereo not given)
Reply: 6.5

Task item: Give the measured growth inhibition of O=C1NC=NC1c1ccccc1 (stereo not given) .
Reply: -3.65

Task item: Given the entry CC(=O)OCc1cocc1COC(C)=O , report its measured growth inhibition.
Reply: -4.1

Task item: Consider the compound shown here: c1ccc(COC2COC(OCc3ccccc3)C(OCc3ccccc3)C2OCc2ccccc2)cc1 (stereo not given) What is its recorded growth inhibition?
Reply: 12.4

Task item: Endpoint output: growth inhibition of CC(C)CC(NC(=O)OC(C)(C)C)C(=O)NC(CC(=O)OCc1ccccc1)C(=O)OCc1ccccc1 (stereo not drawn) (Boc-Leu-Asp(OBn)-OBn; configuration not given here) . Value?
Reply: 15.8

Task item: # lookup: growth inhibition of C/C(=C1/N=C(c2cc([N+](=O)[O-])ccc2Cl)N(c2ccc(Br)cc2)C1=O)c1cc2ccccc2oc1=O
Reply: 9.35

Task item: Recorded growth inhibition for CSc1nc(C)c(CCOC(C)=O)c(Cl)n1 , please?
Reply: 17.1

Task item: Recorded growth inhibition for CC(=O)N1CN=C2Sc3ccccc3N2C1 , please?
Reply: 13.2

Others:
Task item: What value of growth inhibition has been recorded for this entry: O=C(Nc1ccc(Br)cc1)C(=O)C(C(=O)c1ccc(Cl)c(Cl)c1)C1OC(=O)c2ccccc21 (stereo not given)
Reply: 47.3

Task item: Could you share which growth inhibition value was measured for CSc1ccc(NC(=O)Nc2cccc(F)c2)cc1 ?
Reply: 42.5

Task item: Given the compound CC1CCCCNC1=S (stereo not given) , what is its reported growth inhibition?
Reply: 17.8

Task item: Look up growth inhibition: CS(=O)(=O)CC(=O)c1ccc(Br)cc1
Reply: -5.45

Task item: Looking for the measured growth inhibition of CCOc1ccc(/C=C2N=C(/C=C/c3ccccc3)OC\2=O)cc1 , can you help?
Reply: 3.2

Task item: Name the reported growth inhibition value associated with the compound O=C[c-]1[c-][c-][c-][c-]1.[Fe+2].[c-]1[c-][c-][cH-][c-]1
Reply: 51.6

Task item: Which growth inhibition value is on record for NC(N)=NS(=O)(=O)c1ccc(N)cc1 ?
Reply: 13.3

###

List of growth inhibition values.
- test: NCI Yeast Anticancer Drug Screen. Data for the mec2-1 strain (AID 157)
- cond: S. cerevisiae mec2-1 strain, at 50.0 µM, active compounds read high
The panel holds about 79,000 compounds, 15% with a hit somewhere; the sample as a whole holds those more often.
The reply should be a number in %, with the unit left off.

Task item: Which measured growth inhibition value corresponds to [N-]=[N+]=N[Si](c1ccccc1)(c1ccccc1)c1ccccc1 ?
Reply: -11.4

Task item: Query (molecule): CC(=O)Nc1c(C(N)=O)cnn1-c1ccccc1 ; field requested: growth inhibition
Reply: 26.6

Task item: Any idea what its growth inhibition is? The molecule is COc1cccc(CN2CCCN(Cc3cccc(OC)c3O)C2c2ccccc2)c1O
Reply: 3.2

Task item: growth inhibition lookup needed for CC1(C)C2CCC(C2)C1/C=C1/SC(=S)NC1=O (stereo not given) , thanks.
Reply: -1.55

Task item: Item under review: COc1cc2c(c(O)c1C)C(=O)CC(c1ccccc1)O2 (stereo not given) . Reported growth inhibition?
Reply: -46.3

Task item: Tell me the measured growth inhibition of COCc1ccnn1-c1ccccc1C , please.
Reply: 13.5

***
Task item: Item under review: COc1ccc2c3ccc4c(c3n(C)c2c1)C(=O)c1ccccc1C4=O . Reported growth inhibition?
Reply: -36.2

Task item: What growth inhibition value was documented for this molecule, COC(=O)CCNC(=O)c1ccccc1 ?
Reply: -1.6

Task item: // query growth inhibition value for entry Cn1cnc([N+](=O)[O-])c1Sc1nc2ncccc2[nH]1
Reply: -7.1

Task item: What growth inhibition value was documented for this molecule, Cc1cc(S(=O)(=O)Nc2nnc3c4ccccc4cnn23)c(S)cc1Cl ?
Reply: -24.4
